# system: AgLsb4
# procedure summary: SPOT peptide array binding signal intensity (averaged, normalized) (arbitrary units (background-subtracted, floor 0; scale differs between SH3 domains)); higher = stronger binding of the SH3 domain to the peptide
Response key: 1.0 means SPOT peptide array binding signal intensity >= 100; 0.0 means SPOT peptide array binding signal intensity < 100.

Take a look at these entries with their results.
| binder | label class |
| --- | --- |
| RRGPAPPPPPRASRP | 1.0 |
| RNNRPVPPPPPMRTT | 1.0 |
| APKHAPPPVPNETDN | 0.0 |
| ANNQGPPNLPARDKS | 1.0 |
| SGVRLPAPPPPPRRG | 1.0 |

Determine whether measured SPOT peptide array binding signal intensity meets or exceeds 100 for FFRRSELYLPNSSKA
0.0

Reported SPOT peptide array binding signal intensity at or above 100? VRTRRRPPPPPIPST
0.0
